From: patent US20090105251A1

Known IC50 of a selection of compounds
- target_or_test_system: Recombinant human renin (Homo sapiens, UniProt P00797)
- Construct: isolate the active form (residues 67-406); made in house
- Sequence (P00797 67-406): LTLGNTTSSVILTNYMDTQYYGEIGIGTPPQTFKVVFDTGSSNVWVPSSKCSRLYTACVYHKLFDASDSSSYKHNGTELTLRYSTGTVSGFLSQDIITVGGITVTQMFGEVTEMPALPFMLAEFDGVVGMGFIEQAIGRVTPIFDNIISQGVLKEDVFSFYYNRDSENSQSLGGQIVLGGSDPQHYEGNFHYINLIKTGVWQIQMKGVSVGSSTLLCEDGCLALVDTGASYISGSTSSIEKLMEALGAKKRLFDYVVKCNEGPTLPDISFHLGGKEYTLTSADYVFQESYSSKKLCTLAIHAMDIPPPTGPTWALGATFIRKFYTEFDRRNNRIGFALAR
- measurement_notes: In vitro enzymatic activity assay of renin inhibitors (fluorogenic peptide substrate)
- Type: biochemical
- particulars: recombinant human renin 3 nM, 1 μM substrate QXL520/HiLyteFluo488 peptide, pH 7.4, 37° C., fluorescence; values given as ranges; read-out: IC50 of Exemplified Compounds Against Renin, IC50

chemical_structure: COc1ccc(C(=O)c2ccccc2C(=O)N2CCNC[C@H]2Cc2ccccc2)cc1
target_or_test_system: Recombinant human renin (Homo sapiens, UniProt P00797)
IC50: 50 to 100 µM

chemical_structure: O=C(c1cccn1-c1ccccc1Oc1ccccc1)N1CCNC[C@H]1Cc1ccccc1
target_or_test_system: Recombinant human renin (Homo sapiens, UniProt P00797)
IC50: 1 to 50 µM

chemical_structure: O=C(c1nccn1-c1ccccc1C(F)(F)F)N1CCNC[C@H]1Cc1ccccc1
target_or_test_system: Recombinant human renin (Homo sapiens, UniProt P00797)
IC50: 50 to 100 µM

chemical_structure: O=C(c1cc(-c2ccc(Cl)cc2)cs1)N1CCNC[C@H]1Cc1ccccc1
target_or_test_system: Recombinant human renin (Homo sapiens, UniProt P00797)
IC50: 1 to 50 µM

chemical_structure: O=C(c1ccsc1-c1ccccc1-c1ccccc1)N1CCNC[C@H]1Cc1ccccc1
target_or_test_system: Recombinant human renin (Homo sapiens, UniProt P00797)
IC50: 1 to 50 µM

chemical_structure: O=C(c1ncoc1-c1ccccc1)N1CCNC[C@H]1Cc1ccccc1
target_or_test_system: Recombinant human renin (Homo sapiens, UniProt P00797)
IC50: 1 to 50 µM

chemical_structure: N#Cc1ccccc1Sc1ccccc1C(=O)N1CCNC[C@H]1Cc1ccccc1
target_or_test_system: Recombinant human renin (Homo sapiens, UniProt P00797)
IC50: 1 to 50 µM

chemical_structure: Cc1cc2cc(C(=O)N3CCNC[C@H]3Cc3ccccc3)n(Cc3ccccc3)c2s1
target_or_test_system: Recombinant human renin (Homo sapiens, UniProt P00797)
IC50: 1 to 50 µM

Turning now to a further record.
[Q] # input compound: O=C(c1nnc(-c2ccccc2-c2ccccc2)o1)N1CCNC[C@H]1Cc1ccccc1 ; wanted: its IC50
[A] 1 to 50 µM
